TESTED_TARGET: Nav1.5 (wild type; α-subunit co-transfected with the β1 subunit) (Homo sapiens, UniProt Q14524)
Construct: full-length alpha subunit transiently co-transfected with beta1 subunit and eGFP (separate cDNAs) in HEK293; with Sodium channel regulatory subunit beta-1
Sequence (Q14524 whole entry): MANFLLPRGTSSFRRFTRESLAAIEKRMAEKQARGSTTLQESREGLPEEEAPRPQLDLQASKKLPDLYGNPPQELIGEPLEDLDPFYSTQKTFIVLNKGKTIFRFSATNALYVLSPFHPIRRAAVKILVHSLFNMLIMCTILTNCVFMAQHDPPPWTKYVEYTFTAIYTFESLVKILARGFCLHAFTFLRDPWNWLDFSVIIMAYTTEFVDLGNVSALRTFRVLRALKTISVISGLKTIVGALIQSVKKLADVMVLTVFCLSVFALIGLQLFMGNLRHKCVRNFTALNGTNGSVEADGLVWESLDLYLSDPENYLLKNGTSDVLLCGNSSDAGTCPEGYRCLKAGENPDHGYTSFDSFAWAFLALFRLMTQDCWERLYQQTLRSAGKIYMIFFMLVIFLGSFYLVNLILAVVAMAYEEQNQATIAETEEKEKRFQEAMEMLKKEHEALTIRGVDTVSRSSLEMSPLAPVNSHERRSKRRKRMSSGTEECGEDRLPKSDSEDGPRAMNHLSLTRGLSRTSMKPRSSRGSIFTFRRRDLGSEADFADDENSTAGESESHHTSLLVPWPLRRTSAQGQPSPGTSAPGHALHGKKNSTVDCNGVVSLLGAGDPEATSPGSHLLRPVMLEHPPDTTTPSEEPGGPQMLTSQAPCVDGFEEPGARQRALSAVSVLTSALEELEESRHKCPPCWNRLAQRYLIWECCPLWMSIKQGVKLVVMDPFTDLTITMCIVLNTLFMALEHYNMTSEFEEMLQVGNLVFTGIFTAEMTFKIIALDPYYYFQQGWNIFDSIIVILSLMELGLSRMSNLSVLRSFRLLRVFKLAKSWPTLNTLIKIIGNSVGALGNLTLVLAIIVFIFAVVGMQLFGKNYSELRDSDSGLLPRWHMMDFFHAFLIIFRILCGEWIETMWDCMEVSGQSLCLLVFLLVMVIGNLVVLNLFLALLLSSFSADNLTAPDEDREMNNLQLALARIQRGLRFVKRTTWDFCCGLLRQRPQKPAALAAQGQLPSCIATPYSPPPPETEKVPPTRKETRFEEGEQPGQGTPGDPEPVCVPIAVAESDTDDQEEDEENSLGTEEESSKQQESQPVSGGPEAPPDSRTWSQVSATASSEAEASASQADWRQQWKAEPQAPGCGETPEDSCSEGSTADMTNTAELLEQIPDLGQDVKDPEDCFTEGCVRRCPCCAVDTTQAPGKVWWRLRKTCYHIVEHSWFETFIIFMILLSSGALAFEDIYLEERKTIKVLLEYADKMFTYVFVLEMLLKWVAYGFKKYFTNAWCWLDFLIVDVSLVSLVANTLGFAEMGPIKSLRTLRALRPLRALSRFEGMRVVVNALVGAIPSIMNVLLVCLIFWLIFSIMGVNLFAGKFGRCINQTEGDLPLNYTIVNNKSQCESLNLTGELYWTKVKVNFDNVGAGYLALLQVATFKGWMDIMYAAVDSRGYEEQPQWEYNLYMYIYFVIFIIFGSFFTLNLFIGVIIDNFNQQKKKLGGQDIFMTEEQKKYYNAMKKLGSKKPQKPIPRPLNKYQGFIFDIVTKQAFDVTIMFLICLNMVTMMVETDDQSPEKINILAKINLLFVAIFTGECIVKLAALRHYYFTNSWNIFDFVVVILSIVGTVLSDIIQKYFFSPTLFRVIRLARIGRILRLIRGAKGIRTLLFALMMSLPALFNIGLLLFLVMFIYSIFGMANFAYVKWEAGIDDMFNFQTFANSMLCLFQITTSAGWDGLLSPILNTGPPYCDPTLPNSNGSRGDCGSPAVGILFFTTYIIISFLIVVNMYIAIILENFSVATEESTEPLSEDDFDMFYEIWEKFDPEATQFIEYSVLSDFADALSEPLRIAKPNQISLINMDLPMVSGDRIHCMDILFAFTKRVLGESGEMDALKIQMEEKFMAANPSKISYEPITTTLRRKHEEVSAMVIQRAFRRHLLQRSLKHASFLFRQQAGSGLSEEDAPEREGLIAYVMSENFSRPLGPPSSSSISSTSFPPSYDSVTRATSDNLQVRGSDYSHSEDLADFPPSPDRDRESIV
Sequence (Q07699 19-218 partner): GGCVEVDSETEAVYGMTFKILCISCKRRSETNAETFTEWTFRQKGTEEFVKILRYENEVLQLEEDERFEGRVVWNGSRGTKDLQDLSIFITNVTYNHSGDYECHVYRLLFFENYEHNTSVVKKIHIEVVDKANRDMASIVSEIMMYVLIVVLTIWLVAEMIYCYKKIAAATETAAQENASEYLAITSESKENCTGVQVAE
PROTOCOL_DETAILS: whole-cell patch clamp, peak INa block at -20 mV, Hill fit
pIC50: −log10 of the molar value.
yes (1) means recorded pIC50 is 5 or above; no (0) means it is below 5.

In: Could you tell me if the measured pIC50 of C=CCNS(=O)(=O)c1ccc2[nH]c(=O)[nH]c2c1 reaches 5 or more?
Out: yes (1)

In: Could you tell me if the measured pIC50 of COc1cccc(NS(=O)(=O)c2ccc3[nH]c(=O)[nH]c3c2)c1 reaches 5 or more?
Out: no (0)

* * *

TESTED_TARGET: Nav1.5 (wild type; α-subunit co-transfected with the β1 subunit) (Homo sapiens, UniProt Q14524)
Construct: full-length alpha subunit transiently co-transfected with beta1 subunit and eGFP (separate cDNAs) in HEK293; with Sodium channel regulatory subunit beta-1
PROTOCOL_DETAILS: whole-cell patch clamp, peak INa block at -20 mV, Hill fit
ASSAY_ENDPOINT: IC50 (µM)
Write the value in µM as a bare number.

// IC50 value for CN(C)[C@@H](CNC(=O)c1ccc2[nH]c(=O)c(=O)[nH]c2c1)c1ccco1 : 12.6

// IC50 value for O=C(NCc1ccco1)c1ccc2[nH]c(=O)c(=O)[nH]c2c1 : 7.61

// IC50 value for CCc1ccccc1NS(=O)(=O)c1ccc2[nH]c(=O)[nH]c2c1 : 9.86

The measurements presented in this section are drawn from paper PMC9554508.
